All values here come from paper PMC8838534.

# method_notes: Pharmacokinetics in dog
# Format: in vivo, Beagle dogs
# experimental_parameters: beagle, in vivo, intravenous, read-out: Vss
reported_endpoint: Vd (L/kg)
Numeric answer only, unit L/kg assumed.

Ask | What does the data say about its Vd? Entry: CC[C@H]1OC(=O)[C@H](C)[C@@H](O[C@H]2C[C@@](C)(OC)[C@@H](O)[C@@H](C)O2)[C@H](C)[C@@H](O[C@H]2C[C@@H](N(C)C)C[C@@H](C)O2)[C@](C)(O)C[C@@H](C)CN(C)[C@H](C)[C@@H](O)[C@]1(C)O [compound 4, 2′-dehydroxy-5″-epi-azithromycin]
Reply | 6.9

* * *

# method_notes: Pharmacokinetics in rat
# Format: in vivo, Sprague Dawley rats
# experimental_parameters: Sprague-Dawley, whole blood
reported_endpoint: half-life

Ask | What does the data say about its half-life? Entry: CC[C@H]1OC(=O)[C@H](C)[C@@H](O[C@H]2C[C@@](C)(OC)[C@@H](O)[C@@H](C)O2)[C@H](C)[C@@H](O[C@H]2C[C@@H](N(C)C)C[C@@H](C)O2)[C@](C)(O)C[C@@H](C)CN(C)[C@H](C)[C@@H](O)[C@]1(C)O [compound 4, 2′-dehydroxy-5″-epi-azithromycin]
Reply | ~15 h
